assayed-target: mu opiate receptor (Rattus norvegicus)
Construct: from tissue; host or cells: rat brain membranes/homogenate
Sequence (P33535 whole entry): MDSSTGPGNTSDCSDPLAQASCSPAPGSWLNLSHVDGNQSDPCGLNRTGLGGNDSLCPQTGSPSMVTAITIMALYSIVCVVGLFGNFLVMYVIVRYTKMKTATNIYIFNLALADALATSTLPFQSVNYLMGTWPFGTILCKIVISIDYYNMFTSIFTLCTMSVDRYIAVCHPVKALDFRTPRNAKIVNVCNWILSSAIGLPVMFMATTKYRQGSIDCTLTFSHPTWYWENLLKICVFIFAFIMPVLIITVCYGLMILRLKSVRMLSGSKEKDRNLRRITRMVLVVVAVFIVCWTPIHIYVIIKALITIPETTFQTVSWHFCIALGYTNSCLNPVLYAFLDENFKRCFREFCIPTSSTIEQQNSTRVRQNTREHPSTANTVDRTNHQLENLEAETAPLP
assay-explanation: Inhibition of [3H]DAMGO binding to the mu opiate receptor in rat brain homogenates
condition-notes: [3H]DAMGO bound; 0.08 mg of compound per milliliter, 7 nM 3H-labeled DAMGO, rat brain membranes
assay-readout: % Bound (%)

INSERT INTO measurements (compound, measured) VALUES
  ('Cc1nc(C(C)C)c2n1C(C)C(=O)N2 (stereo not drawn)', 71),
  ('CCCCC1C(=O)Nc2c(C(C)C)nc(C)n21 (stereo not drawn) [Pool 11]', 47),
  ('CCC(C)c1nc(C(C)C)c2n1C(C(C)C)C(=O)N2 (mixture of isomers)', 62),
  ('CCCc1nc(C)n2c1NC(=O)C2C(C)C (racemic) [Pool 61]', 39),
  ('CCC(C)c1nc(C)n2c1NC(=O)C2C(C)C (stereo not drawn) [Pool 54]', 53),
  ('CC(C)c1nc(Cc2cccc(Br)c2)n2c1NC(=O)C2C(C)C (racemic)', 27),
  ('CC(C)c1nc(CC2CCCCC2)n2c1NC(=O)C2C(C)C (stereo not drawn)', 60),
  ('CCOc1ccc(Cc2nc(C(C)C)c3n2C(C(C)C)C(=O)N3)cc1 (racemic)', 65),
  ('Cc1nc(Cc2ccc(O)cc2)c2n1C(C(C)C)C(=O)N2 (stereo not drawn) [Pool 48]', 44),
  ('Cc1nc(C(C)C)c2n1C(C(C)C)C(=O)N2 (stereo not drawn) [Pool 3]', 70),
  ('CC(C)Cc1nc(C(C)C)c2n1C(C(C)C)C(=O)N2 (stereo not drawn)', 48),
  ('CCC(C)c1nc(C)n2c1NC(=O)C2C(C)C (stereo not drawn) [Pool 38]', 40),
  ('Cc1nc(C(C)C)c2n1C(C(C)C)C(=O)N2 (stereo not drawn) [Pool 19]', 75),
  ('COc1ccc(Cc2nc(C(C)C)c3n2C(C(C)C)C(=O)N3)cc1OC (racemic)', 59),
  ('CC(C)c1nc(C2CCC2)n2c1NC(=O)C2C(C)C (stereo not drawn)', 59),
  ('CCCCC1C(=O)Nc2c(C(C)C)nc(C)n21 (stereo not drawn) [Pool 27]', 59),
  ('CCCCCCc1nc(C(C)C)c2n1C(C(C)C)C(=O)N2 (racemic)', 53),
  ('CCCCc1nc(C)n2c1NC(=O)C2C(C)C (stereo not drawn) [Pool 44]', 67),
  ('CCC(CC)c1nc(C(C)C)c2n1C(C(C)C)C(=O)N2 (stereo not drawn)', 65),
  ('Cc1nc(C(C)C)c2n1C(CC(C)C)C(=O)N2 (stereo not drawn) [Pool 4]', 70),
  ('Cc1nc(CC(C)C)c2n1C(C(C)C)C(=O)N2 (stereo not drawn) [Pool 53]', 71);
